# system: Receptor-type tyrosine-protein kinase FLT3 (Homo sapiens, UniProt P36888, ITD)
# Sequence (P36888 whole entry, looked up, change not shown): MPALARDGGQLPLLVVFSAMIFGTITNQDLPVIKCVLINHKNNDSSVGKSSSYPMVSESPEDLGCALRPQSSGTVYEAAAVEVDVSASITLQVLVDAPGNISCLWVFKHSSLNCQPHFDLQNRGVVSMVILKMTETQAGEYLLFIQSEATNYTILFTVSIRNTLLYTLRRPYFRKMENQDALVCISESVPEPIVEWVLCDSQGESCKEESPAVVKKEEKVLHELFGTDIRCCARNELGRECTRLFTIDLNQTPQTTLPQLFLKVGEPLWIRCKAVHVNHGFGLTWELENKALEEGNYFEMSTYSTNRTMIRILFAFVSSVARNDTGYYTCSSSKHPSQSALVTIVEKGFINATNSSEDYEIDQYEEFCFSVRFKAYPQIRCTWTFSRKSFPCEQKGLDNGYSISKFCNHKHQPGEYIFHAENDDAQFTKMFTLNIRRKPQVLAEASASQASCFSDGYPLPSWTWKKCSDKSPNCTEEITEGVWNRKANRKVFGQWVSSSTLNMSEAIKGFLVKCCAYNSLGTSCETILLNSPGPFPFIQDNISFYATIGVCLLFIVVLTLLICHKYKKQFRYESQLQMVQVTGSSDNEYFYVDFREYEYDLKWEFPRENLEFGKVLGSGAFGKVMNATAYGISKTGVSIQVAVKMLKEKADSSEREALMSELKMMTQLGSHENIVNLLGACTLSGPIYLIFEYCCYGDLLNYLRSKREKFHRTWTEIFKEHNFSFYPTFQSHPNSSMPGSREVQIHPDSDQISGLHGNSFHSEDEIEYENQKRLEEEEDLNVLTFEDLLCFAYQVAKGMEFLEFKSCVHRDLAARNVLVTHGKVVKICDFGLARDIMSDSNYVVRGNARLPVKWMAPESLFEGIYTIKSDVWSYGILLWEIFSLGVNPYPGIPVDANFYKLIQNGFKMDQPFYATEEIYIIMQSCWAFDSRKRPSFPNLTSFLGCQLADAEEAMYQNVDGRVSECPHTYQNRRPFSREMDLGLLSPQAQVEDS
assay readout: IC50 (nM)

{"structure smiles": "O=C(Nc1ccc(N2CCOCC2)cc1C(F)(F)F)c1cnn2ccc(N[C@@H]3CCNC3)nc12", "quantity unit": "nM", "IC50": 96.7}

a. COc1ccccc1NC(=O)c1cnn2ccc(N[C@@H]3CCCNC3)nc12
b. COc1cc(N2CCN(S(C)(=O)=O)CC2)ccc1NC(=O)c1cnn2ccc(N3CCC[C@@H](N)C3)nc12
IN: Form field 'greater IC50' accepts a or b ; which applies? The response must carry the label of the picked entry.
OUT: a
(a: 144 nM, b: 18.7 nM)

###

# Test system: MOLM-13
# assay explanation: cells
# run conditions: Homo sapiens, MOLM-13, 72 h
# Description: Antiproliferative activity against human MOLM-13 cells assessed as reduction in cell viability incubated for 72 hrs by CCK8 assay
pIC50: −log10 of the molar value.
assay readout: pIC50

# count of solved cases: 2
{"structure smiles": "COc1cc(N2CCCCC2)ccc1NC(=O)c1cnn2ccc(N[C@@H]3CCCNC3)nc12", "pIC50": 7.89}
{"structure smiles": "COc1cc(N2CCOCC2)ccc1NC(=O)c1cnn2ccc(N[C@@H]3CCCNC3)nc12", "pIC50": 7.99}

A. O=C(Nc1ccc(N2CCOCC2)cc1)c1cnn2ccc(N[C@@H]3CCCNC3)nc12
B. Cc1cc(N2CCOCC2)ccc1NC(=O)c1cnn2ccc(N[C@@H]3CCCNC3)nc12
C. CN1CCC[C@@H](Nc2ccn3ncc(C(=O)Nc4ccc(N5CCOCC5)cc4C(F)(F)F)c3n2)C1
IN: Order each entry by recorded pIC50, climbing from the minimum. Please list the labels according to the requested order.
OUT: C, A, B

###

pIC50: −log10 of the molar value.
pIC50 data for Receptor-type tyrosine-protein kinase FLT3 (Homo sapiens, UniProt P36888, ITD) follow.
assay readout: pIC50

A. O=C(Nc1ccc(N2CCOCC2)cc1C(F)(F)F)c1cnn2ccc(NC3CCNCC3)nc12
B. COc1cc(N2CCC(N3CCOCC3)CC2)ccc1NC(=O)c1cnn2ccc(N[C@@H]3CCCNC3)nc12
IN: Looking at recorded values for pIC50, does A or B come in lower? # reply format: chosen label
OUT: B
(B: 7.74, A: 8.17)

I. N#Cc1cc(N2CCOCC2)ccc1NC(=O)c1cnn2ccc(N[C@@H]3CCCNC3)nc12
II. O=C(Nc1ccc(N2CCOCC2)cc1C(F)(F)F)c1cnn2ccc(N[C@H]3CCCNC3)nc12
III. O=C(Nc1ccc(N2CCOCC2)cc1)c1cnn2ccc(N[C@@H]3CCCNC3)nc12
IV. O=C(Nc1ccc(N2CCOCC2)cc1C(F)(F)F)c1cnn2ccc(N[C@@H]3CCCNC3)nc12
IN: Rank the 4 molecules: largest pIC50 first, smallest last. Output spec: a listing of the labels in the requested order.
OUT: IV, I, III, II

###

# system: Receptor-type tyrosine-protein kinase FLT3 (Homo sapiens)
assay readout: IC50 (nM)

Worked examples, 2 compounds total:
{"structure smiles": "O=C(Nc1ccc(N2CCOCC2)cc1C(F)(F)F)c1cnn2ccc(N[C@H]3CN4CCC3CC4)nc12", "IC50 / nM": 7}
{"structure smiles": "COc1cc(N2CCN(C(C)=O)CC2)ccc1NC(=O)c1cnn2ccc(N[C@@H]3CCCNC3)nc12", "IC50 / nM": 1.4}

P. COc1cc(N2CCOCC2)ccc1NC(=O)c1cnn2ccc(N[C@@H]3CCCNC3)nc12
Q. O=C(Nc1ccc(N2CCOCC2)cc1F)c1cnn2ccc(N[C@@H]3CCCNC3)nc12
IN: Which one would you say has the larger IC50 value: P , or Q ? Indicate your choice by writing its label.
OUT: Q

I. COc1cc(N2CCNCC2)ccc1NC(=O)c1cnn2ccc(N3CCC[C@@H](N)C3)nc12
II. O=C(Nc1ccc(N2CCOCC2)cc1Br)c1cnn2ccc(N[C@@H]3CCCNC3)nc12
IN: Recorded IC50 values differ for I and II ; which one is higher? Label of pick, please.
OUT: I
(I: 3.8 nM, II: 0.4 nM)
